test: In vitro metabolic stability, human liver microsomes; type: in vitro ADME; details: N=3, read-out: CLint HLM

>  <COMPOUND>
O=C(N/N=C/c1ccc(OCCOc2ccc(/C=N/NC(=O)c3ccc(O[C@@H]4O[C@H](CO)[C@H](O)[C@H](O)[C@H]4O)cc3)cc2)cc1)c1ccc(O[C@@H]2O[C@H](CO)[C@H](O)[C@H](O)[C@H]2O)cc1 [Compound 14, reference compound]

>  <microsomal CLint at 1 µM [µL/min/mg]>
19.6

$$$$
>  <COMPOUND>
O=C(CCc1ccc(O[C@@H]2O[C@H](CO)[C@H](O)[C@H](O)[C@H]2O)cc1)Nc1ccc(CCc2ccc(NC(=O)CCc3ccc(O[C@@H]4O[C@H](CO)[C@H](O)[C@H](O)[C@H]4O)cc3)cc2S(=O)(=O)O)c(S(=O)(=O)O)c1 [Compound L2]

>  <microsomal CLint at 1 µM [µL/min/mg]>
9.2

$$$$
>  <COMPOUND>
O=C(/C=C/c1ccc(O[C@@H]2O[C@H](CO)[C@H](O)[C@H](O)[C@H]2O)cc1)Nc1ccc(OCCOc2ccc(NC(=O)/C=C/c3ccc(O[C@@H]4O[C@H](CO)[C@H](O)[C@H](O)[C@H]4O)cc3)cc2)cc1 [Compound D1]

>  <microsomal CLint at 1 µM [µL/min/mg]>
21.9

$$$$
>  <COMPOUND>
O=C(CCc1ccc(O[C@@H]2O[C@H](CO)[C@H](O)[C@H](O)[C@H]2O)cc1)Nc1ccc(OCCOc2ccc(NC(=O)CCc3ccc(O[C@@H]4O[C@H](CO)[C@H](O)[C@H](O)[C@H]4O)cc3)cn2)nc1 [Compound H2]

>  <microsomal CLint at 1 µM [µL/min/mg]>
32.5

$$$$

###

biological target: LecA (Pseudomonas aeruginosa, UniProt Q05097); construct: made in house; experiment: Direct binding to immobilized LecA by surface plasmon resonance (SPR); details: compared to respective monovalent compound in each series
Sequence (Q05097 whole entry): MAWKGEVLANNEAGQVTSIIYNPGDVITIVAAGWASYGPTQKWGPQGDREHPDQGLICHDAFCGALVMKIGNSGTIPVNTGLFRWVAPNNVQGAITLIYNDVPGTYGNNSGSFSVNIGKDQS

>  <MOLECULE>
O=C(CCc1ccc(O[C@@H]2O[C@H](CO)[C@H](O)[C@H](O)[C@H]2O)cc1)Nc1ccc(OCCCOc2ccc(NC(=O)CCc3ccc(O[C@@H]4O[C@H](CO)[C@H](O)[C@H](O)[C@H]4O)cc3)cc2)cc1 [Compound E2]

>  <SYSTEM UNDER TEST>
LecA (Pseudomonas aeruginosa, UniProt Q05097)

>  <Relative potency r.p. (SPR)>
291

$$$$
>  <MOLECULE>
O=C(/C=C/c1ccc(O[C@@H]2O[C@H](CO)[C@H](O)[C@H](O)[C@H]2O)cc1)Nc1ccc(OCCCCOc2ccc(NC(=O)/C=C/c3ccc(O[C@@H]4O[C@H](CO)[C@H](O)[C@H](O)[C@H]4O)cc3)cc2)cc1

>  <SYSTEM UNDER TEST>
LecA (Pseudomonas aeruginosa, UniProt Q05097)

>  <Relative potency r.p. (SPR)>
2

$$$$
>  <MOLECULE>
O=C(CCc1ccc(O[C@@H]2O[C@H](CO)[C@H](O)[C@H](O)[C@H]2O)cc1)Nc1ccc(OCCCOc2ccc(NC(=O)CCc3ccc(O[C@@H]4O[C@H](CO)[C@H](O)[C@H](O)[C@H]4O)cc3)cn2)nc1

>  <SYSTEM UNDER TEST>
LecA (Pseudomonas aeruginosa, UniProt Q05097)

>  <Relative potency r.p. (SPR)>
97

$$$$
>  <MOLECULE>
COc1ccc(NC(=O)CCc2ccc(O[C@@H]3O[C@H](CO)[C@H](O)[C@H](O)[C@H]3O)cc2)cc1

>  <SYSTEM UNDER TEST>
LecA (Pseudomonas aeruginosa, UniProt Q05097)

>  <Relative potency r.p. (SPR)>
1

$$$$
>  <MOLECULE>
O=C(/C=C/c1ccc(O[C@@H]2O[C@H](CO)[C@H](O)[C@H](O)[C@H]2O)cc1)Nc1ccc(OCCCOc2ccc(NC(=O)/C=C/c3ccc(O[C@@H]4O[C@H](CO)[C@H](O)[C@H](O)[C@H]4O)cc3)cn2)nc1

>  <SYSTEM UNDER TEST>
LecA (Pseudomonas aeruginosa, UniProt Q05097)

>  <Relative potency r.p. (SPR)>
74

$$$$
>  <MOLECULE>
COc1ccc(NC(=O)CCc2ccc(O[C@@H]3O[C@H](CO)[C@H](O)[C@H](O)[C@H]3O)cc2)cn1

>  <SYSTEM UNDER TEST>
LecA (Pseudomonas aeruginosa, UniProt Q05097)

>  <Relative potency r.p. (SPR)>
1

$$$$
>  <MOLECULE>
O=C(CCc1ccc(O[C@@H]2O[C@H](CO)[C@H](O)[C@H](O)[C@H]2O)cc1)Nc1ccc(Oc2ccc(NC(=O)CCc3ccc(O[C@@H]4O[C@H](CO)[C@H](O)[C@H](O)[C@H]4O)cc3)cc2)cc1

>  <SYSTEM UNDER TEST>
LecA (Pseudomonas aeruginosa, UniProt Q05097)

>  <Relative potency r.p. (SPR)>
244

$$$$
>  <MOLECULE>
O=C(/C=C/c1ccc(O[C@@H]2O[C@H](CO)[C@H](O)[C@H](O)[C@H]2O)cc1)Nc1ccc(Oc2ccc(NC(=O)/C=C/c3ccc(O[C@@H]4O[C@H](CO)[C@H](O)[C@H](O)[C@H]4O)cc3)cc2)cc1

>  <SYSTEM UNDER TEST>
LecA (Pseudomonas aeruginosa, UniProt Q05097)

>  <Relative potency r.p. (SPR)>
77

$$$$
>  <MOLECULE>
O=C(CCc1ccc(O[C@@H]2O[C@H](CO)[C@H](O)[C@H](O)[C@H]2O)cc1)Nc1ccc(OCCOc2ccc(NC(=O)CCc3ccc(O[C@@H]4O[C@H](CO)[C@H](O)[C@H](O)[C@H]4O)cc3)cc2)cc1 [Compound D2]

>  <SYSTEM UNDER TEST>
LecA (Pseudomonas aeruginosa, UniProt Q05097)

>  <Relative potency r.p. (SPR)>
233

$$$$
>  <MOLECULE>
O=C(/C=C/c1ccc(O[C@@H]2O[C@H](CO)[C@H](O)[C@H](O)[C@H]2O)cc1)Nc1ccc(OCCOc2ccc(NC(=O)/C=C/c3ccc(O[C@@H]4O[C@H](CO)[C@H](O)[C@H](O)[C@H]4O)cc3)cn2)nc1

>  <SYSTEM UNDER TEST>
LecA (Pseudomonas aeruginosa, UniProt Q05097)

>  <Relative potency r.p. (SPR)>
217

$$$$
>  <MOLECULE>
O=C(/C=C/c1ccc(O[C@@H]2O[C@H](CO)[C@H](O)[C@H](O)[C@H]2O)cc1)Nc1ccc(OCOc2ccc(NC(=O)/C=C/c3ccc(O[C@@H]4O[C@H](CO)[C@H](O)[C@H](O)[C@H]4O)cc3)cc2)cc1

>  <SYSTEM UNDER TEST>
LecA (Pseudomonas aeruginosa, UniProt Q05097)

>  <Relative potency r.p. (SPR)>
138

$$$$
>  <MOLECULE>
O=C(CCc1ccc(O[C@@H]2O[C@H](CO)[C@H](O)[C@H](O)[C@H]2O)cc1)Nc1ccc(OCCOc2ccc(NC(=O)CCc3ccc(O[C@@H]4O[C@H](CO)[C@H](O)[C@H](O)[C@H]4O)cc3)cn2)nc1

>  <SYSTEM UNDER TEST>
LecA (Pseudomonas aeruginosa, UniProt Q05097)

>  <Relative potency r.p. (SPR)>
300

$$$$
>  <MOLECULE>
O=C(CCc1ccc(O[C@@H]2O[C@H](CO)[C@H](O)[C@H](O)[C@H]2O)cc1)Nc1ccc(OCCCCOc2ccc(NC(=O)CCc3ccc(O[C@@H]4O[C@H](CO)[C@H](O)[C@H](O)[C@H]4O)cc3)cc2)cc1

>  <SYSTEM UNDER TEST>
LecA (Pseudomonas aeruginosa, UniProt Q05097)

>  <Relative potency r.p. (SPR)>
233

$$$$
>  <MOLECULE>
O=C(CCc1ccc(O[C@@H]2O[C@H](CO)[C@H](O)[C@H](O)[C@H]2O)cc1)Nc1ccc(OCOc2ccc(NC(=O)CCc3ccc(O[C@@H]4O[C@H](CO)[C@H](O)[C@H](O)[C@H]4O)cc3)cc2)cc1

>  <SYSTEM UNDER TEST>
LecA (Pseudomonas aeruginosa, UniProt Q05097)

>  <Relative potency r.p. (SPR)>
352

$$$$
>  <MOLECULE>
O=C(CCc1ccc(O[C@@H]2O[C@H](CO)[C@H](O)[C@H](O)[C@H]2O)cc1)Nc1ccc(CCc2ccc(NC(=O)CCc3ccc(O[C@@H]4O[C@H](CO)[C@H](O)[C@H](O)[C@H]4O)cc3)cc2S(=O)(=O)O)c(S(=O)(=O)O)c1

>  <SYSTEM UNDER TEST>
LecA (Pseudomonas aeruginosa, UniProt Q05097)

>  <Relative potency r.p. (SPR)>
115

$$$$

The reported measurements were obtained from paper PMC10107299.
